B1: Abscisic acid receptor PYL1 (Arabidopsis thaliana (Mouse-ear cress)), Q8VZS8 (parent)
chain: MANSESSSSPVNEEENSQRISTLHHQTMPSDLTQDEFTQLSQSIAEFHTYQLGNGRCSSLLAQRIHAPPETVWSVVRRFDRPQIYKHFIKSCNVSEDFEMRVGCTRDVNVISGLPANTSRERLDLLDDDRRVTGFSITGGEHRLRNYKSVTTVHRFEKEEEEERIWTVVLESYVVDVPEGNSEEDTRLFADTVIRLNLQKLASITEAMNRNNNNNNSSQVR

Variants of: B1
Conditions: with ABI1, P49597
recorded-endpoint: effect of a mutation on the interaction

>>> result("L144A")
"disrupting interaction"
>>> result("R143A")
"decreasing interaction"
>>> result("H142A")
"disrupting interaction"
>>> result("F189A")
"decreasing interaction"

// data source = IntAct's records for PubMed 19855379
